Reference source for all entries: PubChem BioAssay (NCI)

System: A498 renal
Experiment: NCI-60 one-dose screen, 48 h (100 = growth as untreated, 0 = no growth, -100 = all killed)
Conditions: 10 µM unless noted
Compounds without any hit were thinned out: in the full panel of roughly 83,000, 20% have a hit.
READOUT TYPE: growth (%)
Numbers only, in %.

Give growth for each listed item.
1. CNCCNc1nc2ccccc2c2c(=O)c3cccc(OC)c3sc12
2. Cc1nc2ccccc2c(/C=C/c2ccccc2)c1C(=O)/C=C/c1ccc(Cl)cc1

Resp:
1: 3.67; 2: 36.7

State the recorded growth for every item in the following list.
1. Cn1c(/C=C(\C#N)c2cccc(C(F)(F)F)c2)nc2c(N3CCOCC3)nc(Cl)nc21
2. CN1CCN(Cc2ccc(NC(=O)c3[nH]ncc3Nc3cc(OC4CCCC4)ncn3)cc2)CC1

Resp:
1. 10.8
2. 49.6

Quick batch: growth for everything below.
1. N#CC(C#N)=Cc1c(-c2ccccc2)[nH]c2ccccc12
2. O=C(c1nc2ccccc2[nH]1)C1C(c2ccc(F)cc2)C2CC3CCCCC3N2[C@@]12C(=O)Nc1ccc(Cl)cc12 (some centres undefined)
3. COc1cccc(C(=O)NC(c2ccc(C)cc2)c2cc(Cl)c3cccnc3c2O)c1 (centres undefined)
4. O=C(COc1cc(O)c2c(=O)cc(-c3ccccc3)oc2c1)Nc1ccccc1C(F)(F)F

Resp:
[-3.79, 39.8, 23.1, 55.9]

Req: Provide growth, system A498 renal, entry "COc1ccc(OC)c(N(CCN2C(=O)c3ccccc3C2=O)C(=O)CCl)c1"
Resp: 72.4

----------
Test system: ACHN renal
Assay: NCI-60 one-dose screen, 48 h (100 = growth as untreated, 0 = no growth, -100 = all killed)
Settings: 10 µM unless noted
About 83,000 compounds went through this panel and 20% of them were active in at least one assay; those are over-represented in the sample as a whole.
READOUT TYPE: growth (%)
Numbers only, in %.

Reference set, count: 5
COc1cccc2c1C=C1CCCCC3=Cc4c(OC)cccc4OC13O2 ... 38.7
CCN1C(=O)N(CC)C2Nn3c(s/c(=C\c4ccccc4F)c3=O)=NC21 (stereo unspecified) ... 50.8
Nc1ccc(-c2ccc(-c3ccccc3N)c3[nH]c4ccccc4c23)cc1 ... 32.1
O=C(Nc1ccc(F)c(Cl)c1)Nc1ccc(Cl)c(Cl)c1 ... 96
c1ccc2c(c1)oc1cc3sccc3nc12 ... 99.5

Please state growth for every compound in the list that follows.
1. CCn1c(-c2nonc2Nc2ccc(OC)cc2)nc2ccccc21
2. O=C(COc1cc(O)c2c(=O)cc(-c3ccccc3)oc2c1)Nc1ccccc1C(F)(F)F
3. CN(C)c1ccc(N=Cc2ccc(N3CCOCC3)cc2)cc1
4. O=C(Nc1ccc(F)cc1F)c1cc(Br)ccc1O
5. O=C(Nc1ccc(Cl)cc1F)c1cc(I)ccc1O
6. COc1cc2nc(-c3cccc4cccnc34)nc(NC3CCN(Cc4ccccc4)CC3)c2cc1OC

Resp:
1. 108
2. 17.8
3. 88.8
4. 1.37
5. 34.3
6. -94.5

----------
Test system: LOX IMVI melanoma
Experiment: NCI-60 one-dose screen, 48 h (100 = growth as untreated, 0 = no growth, -100 = all killed)
Conditions: 10 µM unless noted
Description: Growth inhibition of the LOX IMVI human tumor cell line is measured as a screen for anti-cancer activity. Cells are grown in 96 well plates and exposed to the test compound for 48 hours. Compounds are tested at a single concentration, which is 10^-5 M for most compounds. The reported endpoint is percent growth (GI% or GIPRCNT), where numbers from 0 - 100% represent growth inhibition, and numbers from -100% - 0 represent cell death. For example, a value of 40 represents 60% growth inhibition. […]
Compounds without any hit were thinned out: in the full panel of roughly 83,000, 20% have a hit.
Field: growth. Provide a value for each of the molecules that follow.
Answers are plain numbers, in %.

# map each molecule to its growth
1. CC[C@]1(O)C[C@@H]2CN(CCc3c([nH]c4ccccc34)[C@@](C(=O)OC)(c3cc4c(cc3OC)N(C)[C@H]3[C@@](O)(C(=O)OC)[C@H](OC(C)=O)[C@]5(CC)C=CCN6CC[C@]43[C@@H]65)C2)C1
2. O=Cc1c(OCc2cnnn2CC(=O)Nc2ccc(Cl)cc2)ccc2ccccc12
3. O=c1cc(-c2ccccc2)oc2cc(OCc3cn(Cc4ccc(F)cc4)nn3)cc(OCc3cn(Cc4ccc(F)cc4)nn3)c12
4. COc1ccc(-c2cn[nH]c2-c2ccc(OC)c(O)c2)cc1
5. Cc1ccc(C)c(-c2csc(Nc3ccc(C)c(C)c3)n2)c1
6. O=C(Nc1ccc(N2CCNCC2)cc1)c1[nH]ncc1Nc1cc(Oc2ccccc2)ncn1

Resp:
15.3
99.5
34.8
59.5
-67.9
-81
